study_system: native amyloid plaques in unfixed brain sections of Tg2576 APP transgenic mice (human, UniProt P05067 672-713, limits assumed)
Sequence (P05067 672-713 limits assumed): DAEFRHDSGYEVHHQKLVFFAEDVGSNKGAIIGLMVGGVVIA
test_protocol: cell-based or functional assay

| binder | EC50 (µg/ml), ex vivo phagocytosis / µg/mL |
| --- | --- |
| 2.1 J (antibody, human IgG1, kappa, V domains shown) VH: QVTLKESGPALVKPTQTLTLTCTFSGFSLRTSGMGVGWIRQPPGKALEWLAHIWWDDDKSYNPSLKSQLTISKDTSKNQVVLTMTNMDPVDTATYYCARRNYYYDDYFAYWGQGTLVTVSS VL: DVVMTQSPLSLPVTLGQPASISCRSSQSIVHSNGNTYLEWFQQRPGQSPRRLIYKVSNRFSGVPDRFSGSGSGTDFTLKISRVEAEDVGVYYCFQGSHVPLTFGQGTKLEIKR | 1.22 |
| 2.1 chimera (murine/human chimeric form of antibody 2.1) (antibody, V domains shown, also called chimera 2.1; (CHO) 2.1 Chimera (control)) VH: QVTLKESGPGILKPSQTLSLTCSFSGFSLRTSGMGVGWIRQPSGKGLEWLAHIWWDDDKSYNPSLKSQLTISKDTSRNQVFLKITSVDTADTATYYCARRNYYYDDYFAYWGQGTTLTVSS VL: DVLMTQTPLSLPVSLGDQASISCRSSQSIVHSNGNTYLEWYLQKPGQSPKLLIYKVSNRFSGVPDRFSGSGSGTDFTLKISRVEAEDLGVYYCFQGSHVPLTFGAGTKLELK | 0.8 |
| 2.1 K (antibody, human IgG1, kappa, V domains shown) VH: QVTLKESGPALVKPTQTLTLTCTFSGFSLRTSGMGVGWIRQPPGKGLEWLAHIWWDDDKSYNPSLKSQLTISKDTSKNQVVLTMTNMDPVDTATYYCARRNYYYDDYFAYWGQGTTLTVSS VL: DVLMTQSPLSLPVTLGQPASISCRSSQSIVHSNGNTYLEWYLQRPGQSPKLLIYKVSNRFSGVPDRFSGSGSGTDFTLKISRVEAEDVGVYYCFQGSHVPLTFGAGTKLEIKR | 0.84 |

From: patent US20080292639A1
